- tested.on: UniProt:P28223
- experimental.details: 5HT2A binding in L929sA cells (radioligand binding, 125I ligand)
- test.context: membranes of L929sA cells expressing human 5HT2A receptors; 0.1 nM 125I radioligand; pIC50 = −log IC50, IC50 in M
pIC50: −log10 of the molar value.
assay.endpoint: pIC50

| query.smiles | pIC50 |
| --- | --- |
| Cc1ccc2[nH]c3c(c2c1)CN(CCc1c(C)nc2n(c1=O)CCCC2)CC3 | 6.50 |

1 = Cc1nc2ccc(Cl)cn2c(=O)c1CCN1CCc2[nH]c3cc(Cl)ccc3c2C1
2 = Cc1nc2ccccn2c(=O)c1CCN1CCc2[nH]c3ccc(F)cc3c2C1
3 = Cc1nc2scc(C)n2c(=O)c1CCN1CCc2[nH]c3ccc(Cl)cc3c2C1
Descending sort on pIC50 required. Labels, requested order.
3, 2, 1

* * *

- tested.on: human 5HT2A receptor (Homo sapiens)
- Sequence (P28223 whole entry): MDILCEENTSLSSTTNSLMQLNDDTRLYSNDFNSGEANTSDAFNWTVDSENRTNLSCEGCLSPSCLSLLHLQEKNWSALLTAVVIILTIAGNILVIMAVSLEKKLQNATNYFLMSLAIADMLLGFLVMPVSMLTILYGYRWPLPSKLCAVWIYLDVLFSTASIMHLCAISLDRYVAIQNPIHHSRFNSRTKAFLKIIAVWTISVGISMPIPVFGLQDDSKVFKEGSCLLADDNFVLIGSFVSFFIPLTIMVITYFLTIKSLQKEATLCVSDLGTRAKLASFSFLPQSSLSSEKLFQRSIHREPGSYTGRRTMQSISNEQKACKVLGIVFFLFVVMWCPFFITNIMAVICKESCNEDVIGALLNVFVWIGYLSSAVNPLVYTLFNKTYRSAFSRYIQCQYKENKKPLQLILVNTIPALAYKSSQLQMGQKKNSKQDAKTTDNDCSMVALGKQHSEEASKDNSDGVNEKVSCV
- experimental.details: 5HT2A binding in L929sA cells (radioligand binding, 125I ligand)
- test.context: membranes of L929sA cells expressing human 5HT2A receptors; 0.1 nM 125I radioligand; pIC50 = −log IC50, IC50 in M
pIC50: −log10 of the molar value.
assay.endpoint: pIC50

Answered cases to consult:
| molecule | tested.on | obs.value |
| --- | --- | --- |
| Cc1ccc2[nH]c3c(c2c1)CN(CCc1c(C)nc2scc(C)n2c1=O)CC3 [Compound 32] | human 5HT2A receptor (Homo sapiens) | 8.35 |
| Cc1nc2c(C)cccn2c(=O)c1CCN1CCc2[nH]c3cc(Cl)ccc3c2C1 [Compound 13] | human 5HT2A receptor (Homo sapiens) | 5.83 |
| Cc1nc2n(c(=O)c1CCN1CCc3[nH]c4cc(Cl)ccc4c3C1)CCS2 [Compound 12] | human 5HT2A receptor (Homo sapiens) | 6.21 |
| COc1ccc2[nH]c3c(c2c1)CN(CCc1c(C)nc2n(c1=O)CCCC2)CC3 [Compound 52] | human 5HT2A receptor (Homo sapiens) | 7.31 |
| Cc1nc2n(c(=O)c1CCN1CCc3c(c4cc(F)ccc4n3-c3ccc(F)cc3)C1)CCS2 [Compound 67] | human 5HT2A receptor (Homo sapiens) | 8.36 |
| Cc1nc2sccn2c(=O)c1CCN1CCc2[nH]c3cc(Cl)ccc3c2C1 [Compound 7] | human 5HT2A receptor (Homo sapiens) | 7.64 |
| Cc1nc2scc(C)n2c(=O)c1CCN1CCc2c(c3cc(F)ccc3n2-c2ccc(F)cc2)C1 [Compound 68] | human 5HT2A receptor (Homo sapiens) | 8.18 |
| Cc1nc2ccccn2c(=O)c1CCN1CCc2[nH]c3cc(Cl)ccc3c2C1 [Compound 9] | human 5HT2A receptor (Homo sapiens) | 7.24 |

P = Cc1nc2n(c(=O)c1CCN1CCc3[nH]c4ccc(Cl)cc4c3C1)CCCS2 [Compound 24]
Q = Cc1nc2scc(C)n2c(=O)c1CCN1CCc2[nH]c3ccccc3c2C1 [Compound 39]
Could you tell me which of P and Q has the lower pIC50 reading? Your choice should be expressed through its label.
P
(P: 8.07, Q: 8.30)

I = Cc1nc2ccc(Br)cn2c(=O)c1CCN1CCc2[nH]c3cc(Cl)ccc3c2C1 [Compound 14]
II = Cc1nc2scc(C)n2c(=O)c1CCN1CCc2[nH]c3cc(Cl)ccc3c2C1 [Compound 8]
Could you tell me which of I and II has the lower pIC50 reading? Your choice should be expressed through its label.
I
(I: 6.38, II: 8.01)

a = Cc1nc2ccccn2c(=O)c1CCN1CCc2[nH]c3ccc(Cl)cc3c2C1 [Compound 28]
b = COc1ccc2[nH]c3c(c2c1)CN(CCc1c(C)nc2ccccn2c1=O)CC3 [Compound 53]
c = Cc1ccn2c(=O)c(CCN3CCc4[nH]c5cc(Cl)ccc5c4C3)c(C)nc2c1 [Compound 22]
Descending sort on pIC50 required. Labels, requested order.
a, b, c

* * *

- tested.on: human 5HT2A receptor (Homo sapiens)
- experimental.details: 5HT2A binding in L929sA cells (radioligand binding, 125I ligand)
- test.context: membranes of L929sA cells expressing human 5HT2A receptors; 0.1 nM 125I radioligand; pIC50 = −log IC50, IC50 in M
- Method: 5HT2 receptors were measured by radioligand binding studies either in homogenates from rat brains or in a membranes fraction prepared from L929sA cells (mouse fibro carcinoma cells), stably transfected with human 5HT2A receptor cDNA. 5HT2A Binding in L929sA Cells […] Counting data from assays in the presence of test compound were automatically expressed as percent of total binding measured in the absence of test compound. […]
assay.endpoint: IC50 (nM)

| query.smiles | tested.on | units | obs.value |
| --- | --- | --- | --- |
| Cc1nc2n(c(=O)c1CCN1CCc3[nH]c4cc(Cl)ccc4c3C1)CCCS2 | human 5HT2A receptor (Homo sapiens) | nM | 575 |
| Cc1nc2sccn2c(=O)c1CCN1CCc2[nH]c3ccc(F)cc3c2C1 | human 5HT2A receptor (Homo sapiens) | nM | 6.46 |
| COc1cccn2c(=O)c(CCN3CCc4[nH]c5cc(Cl)ccc5c4C3)c(C)nc12 | human 5HT2A receptor (Homo sapiens) | nM | 316 |
| Cc1nc2ccccn2c(=O)c1CCN1CCc2[nH]c3ccccc3c2C1 | human 5HT2A receptor (Homo sapiens) | nM | 44.7 |
| Cc1nc2n(c(=O)c1CCN1CCc3[nH]c4ccc(Cl)cc4c3C1)CCS2 | human 5HT2A receptor (Homo sapiens) | nM | 6.17 |

a = Cc1nc2n(c(=O)c1CCN1CCc3c(c4ccccc4n3-c3ccccc3)C1)CCCC2
b = Cc1nc2sccn2c(=O)c1CCN1CCc2[nH]c3ccc(Cl)cc3c2C1
Pick one: a or b . Which has the bigger IC50 number? Your choice should be expressed through its label.
a
(a: 6.92 nM, b: 3.31 nM)

a = Cc1nc2c(Cl)cc(C(F)(F)F)cn2c(=O)c1CCN1CCc2[nH]c3cc(Cl)ccc3c2C1
b = Cc1nc2n(c(=O)c1CCN1CCc3[nH]c4cc(Cl)ccc4c3C1)CCCC2
c = Cc1ccc2nc(C)c(CCN3CCc4[nH]c5cc(Cl)ccc5c4C3)c(=O)n2c1
d = Cc1nc2n(c(=O)c1CCN1CCc3c(c4ccccc4n3-c3ccccc3)C1)CCS2
Descending sort on IC50 required. Labels, requested order.
a, b, c, d

A = Cc1nc2sccn2c(=O)c1CCN1CCc2[nH]c3ccccc3c2C1
B = Cc1ccc2[nH]c3c(c2c1)CN(CCc1c(C)nc2sccn2c1=O)CC3
Could you tell me which of A and B has the lower IC50 reading? Your choice should be expressed through its label.
B
(B: 8.32 nM, A: 12.6 nM)
